# procedure details: drug combination growth inhibition, ovarian cancer – cell-based, oncology-focused library, rucaparib conditional, profiling panel (AID 1508598)
# particulars: patient-derived ovarian cancer cells, CellTiter-Glo viability, 144 h; at 0.0195 µM; OCI-P5x cells; with rucaparib 20 µM; 100% = cells with rucaparib alone
Activity calls are given as the source filed them.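 The calls were made as follows: active = normalized viability below 100% at a tested concentration; inactive = the rest.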
Result category, one only: true (1) for active, false (0) for inactive

Please review the following examples before continuing.
In: Each compound tested received a call. Report the one for `CN(C)CCOc1ccc(-c2nc(-c3ccc4c(c3)CCC4=NO)c(-c3ccncc3)[nH]2)cc1` .
Out: true (1)

In: Each compound tested received a call. Report the one for `COc1ccc(C2=N[C@H](c3ccc(Cl)cc3)[C@@H](c3ccc(Cl)cc3)N2C(=O)N2CCNC(=O)C2)c(OC(C)C)c1` .
Out: true (1)

In: Each compound tested received a call. Report the one for `CC(=O)[C@]1(O)Cc2c(O)c3c(c(O)c2[C@H](O[C@H]2C[C@H](N)[C@H](O)[C@H](C)O2)C1)C(=O)c1ccccc1C3=O` .
Out: true (1)

In: Each compound tested received a call. Report the one for `C[C@H]1C[C@H]2[C@@H]3CCC4=CC(=O)C=C[C@]4(C)[C@@H]3C(=O)C[C@]2(C)[C@]1(O)C(=O)CO` .
Out: false (0)

In: Each compound tested received a call. Report the one for `CO[C@H]1C[C@@H]2CC[C@@H](C)[C@@](O)(O2)C(=O)C(=O)N2CCCC[C@H]2C(=O)O[C@H]([C@@H](C)C[C@@H]2CC[C@@H](OCCO)[C@H](OC)C2)CC(=O)[C@H](C)/C=C(\C)[C@H](O)[C@@H](OC)C(=O)[C@H](C)C[C@H](C)/C=C/C=C/C=C/1C` .
Out: true (1)

In: Each compound tested received a call. Report the one for `Cc1ccc(NC(=O)c2ccc(CN3CCN(C)CC3)cc2)cc1Nc1nc(-c2cccnc2)cs1` .
Out: true (1)

In: Each compound tested received a call. Report the one for `COc1ccc(C2=N[C@@H](c3ccc(Cl)cc3)[C@H](c3ccc(Cl)cc3)N2C(=O)N2CCNC(=O)C2)c(OC(C)C)c1` .
Out: true (1)

In: Each compound tested received a call. Report the one for `CO[C@H]1C[C@@H]2CC[C@@H](C)[C@@](O)(O2)C(=O)C(=O)N2CCCC[C@H]2C(=O)O[C@H]([C@H](C)C[C@@H]2CC[C@@H](O)[C@H](OC)C2)CC(=O)[C@H](C)/C=C(\C)[C@@H](O)[C@H](OC)C(=O)[C@H](C)C[C@H](C)/C=C/C=C/C=C/1C` .
Out: true (1)

In: Each compound tested received a call. Report the one for `CO[C@H]1/C=C\C=C(\C)C(=O)NC2=CC(=O)C(NCCN(C)C)=C(C[C@@H](C)C[C@H](OC)[C@H](O)[C@@H](C)/C=C(\C)[C@@H]1OC(N)=O)C2=O` .
Out: true (1)

In: Each compound tested received a call. Report the one for `COc1cc(C(=O)NC2CCN(C)CC2)ccc1Nc1ncc2c(n1)N(C1CCCC1)CC(F)(F)C(=O)N2C` .
Out: true (1)

Next:
In: Each compound tested received a call. Report the one for `CC[C@]1(O)C[C@@H]2CN(CCc3c([nH]c4ccccc34)[C@@](C(=O)OC)(c3cc4c(cc3OC)N(C=O)[C@H]3[C@@](O)(C(=O)OC)[C@H](OC(C)=O)[C@]5(CC)C=CCN6CC[C@@]43[C@@H]65)C2)C1` .
Out: true (1)

In: Each compound tested received a call. Report the one for `OCCn1cc(-c2ccc3c(c2)CCC3=NO)c(-c2ccncc2)n1` .
Out: false (0)
